tgt: Sa-ClpP (Staphylococcus aureus)
Construct: made in house; host or cells: E. coli BL21 (DE3)
Sequence (Q2G036 whole entry): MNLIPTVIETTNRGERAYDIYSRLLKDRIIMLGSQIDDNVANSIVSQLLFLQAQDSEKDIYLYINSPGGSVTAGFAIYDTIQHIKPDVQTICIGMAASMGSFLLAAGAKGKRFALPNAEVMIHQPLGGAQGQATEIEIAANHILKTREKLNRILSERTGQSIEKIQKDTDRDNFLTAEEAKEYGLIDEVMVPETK
assay-text: ClpP activation, EnzCheck Protease Assay with Bodipy-FL casein (second described method)
Type: biochemical, S. aureus
experimental-conditions: read-out: ClpP Activation EC50 (converted)
quantity-kind: EC50 (nM)
Provide only the numeric value, understood in nM.

State the recorded EC50 for this entry: Cc1ccc(NC(=O)N[C@@H](Cc2cc(F)cc(F)c2)C(=O)N[C@@H]2C(=O)N3CCCC3C(=O)N3CCCCC3C(=O)N[C@@H](C)C(=O)N3C[C@H](C)CC3C(=O)O[C@H]2C)cc1 (stereo partly drawn)
480

State the recorded EC50 for this entry: "COc1cccc(NC(=O)N[C@@H](Cc2ccccc2)C(=O)N[C@H]2COC(=O)[C@@H]3C[C@@H](C)CN3C(=O)[C@H](C)NC(=O)[C@@H]3CCCCN3C(=O)[C@@H]3CCCN3C2=O)c1"
1300

State the recorded EC50 for this entry: "Cc1ccc(NC(=O)N[C@@H](Cc2ccccc2)C(=O)N[C@H]2COC(=O)[C@@H]3C[C@@H](C)CN3C(=O)[C@H](C)NC(=O)[C@@H]3CCCCN3C(=O)[C@@H]3CCCN3C2=O)cc1"
500

====

Assignment: determine reported IC50 at 72 h for the given compounds.
assay-text: Cytotoxicity assay, CellTiter-Glo cell viability
Assay type: cell-based
experimental-conditions: African green monkey; Vero cells, 72 hours; read-out: Cytotoxicity IC50
Include the unit after the number when you answer.

State the recorded IC50 at 72 h for this entry: Cc1ccc(NC(=O)N[C@@H](Cc2cc(F)cc(F)c2)C(=O)N[C@H]2COC(=O)C3C[C@H](C)CN3C(=O)[C@H](C)NC(=O)C3CCCCN3C(=O)C3CCCN3C2=O)cc1 (stereo partly drawn)
56.8 µM

State the recorded IC50 at 72 h for this entry: "C[C@H]1C[C@H]2C(=O)O[C@@H](C)[C@H](NC(=O)[C@H](Cc3cc(F)cc(F)c3)NC(=O)Nc3ccc(C(F)(F)F)cc3)C(=O)N3CCC[C@H]3C(=O)N3CCCC[C@H]3C(=O)N[C@@H](C)C(=O)N2C1"
36.8 µM

State the recorded IC50 at 72 h for this entry: Cc1ccc(NC(=O)N[C@@H](Cc2ccccc2)C(=O)N[C@H]2COC(=O)C3C[C@H](C)CN3C(=O)[C@H](C)NC(=O)C3CCCCN3C(=O)C3CCCN3C2=O)cc1 (stereo partly drawn)
74.5 µM

====

assay-text: Cytotoxicity assay, CellTiter-Glo cell viability
Assay type: cell-based
experimental-conditions: African green monkey; Vero cells, 72 hours; read-out: Cytotoxicity IC50
quantity-kind: IC50 at 72 h (µM)
Provide only the numeric value, understood in µM.

State the recorded IC50 at 72 h for this entry: Cc1ccc(NC(=O)N[C@@H](Cc2cc(F)cc(F)c2)C(=O)N[C@H]2COC(=O)[C@@H]3C[C@@H](C)CN3C(=O)[C@H](C)NC(=O)[C@@H]3CCCCN3C(=O)[C@@H]3CCCN3C2=O)cc1 [Compound 24]
93.8

State the recorded IC50 at 72 h for this entry: Cc1ccc(NC(=O)N[C@@H](Cc2cc(F)cc(F)c2)C(=O)N[C@@H]2C(=O)N3CCC[C@H]3C(=O)N3CCCC[C@H]3C(=O)N[C@@H](C)C(=O)N3CCC[C@H]3C(=O)O[C@H]2C)cc1 [Compound 15]
39.7

State the recorded IC50 at 72 h for this entry: Cc1ccc(NC(=O)N[C@@H](Cc2cc(F)cc(F)c2)C(=O)N[C@@H]2C(=O)N3CCCC3C(=O)N(C)[C@@H](C)C(=O)N[C@@H](C)C(=O)N3CCCC3C(=O)O[C@H]2C)cc1 (stereo partly drawn) [Compound 25]
10.8
